Each recorded value in this set is attributed to PubChem BioAssay AID1745844.

System: rodent lifetime carcinogenesis bioassay, tumor incidence TD50
ASSAY_OVERVIEW: carcinogenic potency in animals, long-term in vivo studies, CPDB compilation (AID 1745844)
EXPERIMENTAL_CONDITIONS: rat; strain Fischer 344; females; in drinking water; site: uterus; lesion: adenocarcinoma; dosed 104 weeks; study length 104 weeks
OUTCOME_MEASURE: TD50

Qu. What does the data say about its TD50? Entry: C=CC(N)=O
Ans. 26.5 mg/kg/day

---

Test system: rodent lifetime carcinogenesis bioassay, tumor incidence TD50
ASSAY_OVERVIEW: carcinogenic potency in animals, long-term in vivo studies, CPDB compilation (AID 1745844)
EXPERIMENTAL_CONDITIONS: mouse; strain NMRI; males; in feed; site: liver; lesion: hepatocellular adenoma; dosed 120 weeks; study length 120 weeks
Calls of active or inactive are those of the source. How the calls were made is not given here.
OUTCOME_MEASURE: TD50

Qu. Which value of TD50 has been reported for O=C(O)c1ccc(N=Nc2ccc(O)c(C(=O)O)c2)cc1 in the records?
Ans. 35200 mg/kg/day (inactive)

---

Test system: rodent lifetime carcinogenesis bioassay, tumor incidence TD50
ASSAY_OVERVIEW: carcinogenic potency in animals, long-term in vivo studies, CPDB compilation (AID 1745844)
EXPERIMENTAL_CONDITIONS: rat; strain Fischer 344; females; in feed; site: pituitary gland; lesion: chromophobe adenoma + chromophobe carcinoma; dosed 78 weeks; study length 104 weeks
Active and inactive are the calls of the source. No rule for the calls is given here.
OUTCOME_MEASURE: TD50

Qu. Please report the recorded TD50 for NC(=O)c1cnccn1 .
Ans. 178 mg/kg/day (inactive)

---

System: rodent lifetime carcinogenesis bioassay, tumor incidence TD50
ASSAY_OVERVIEW: carcinogenic potency in animals, long-term in vivo studies, CPDB compilation (AID 1745844)
EXPERIMENTAL_CONDITIONS: rat; strain Sas:MRC(WI)BR; males; in feed; site: subcutaneous tissue; lesion: several types; types named in the paper; dosed 140 weeks; study length 144 weeks
OUTCOME_MEASURE: TD50
Don't forget the unit after the value.

Qu. Which value of TD50 has been reported for Cc1ncc([N+](=O)[O-])n1CCO in the records?
Ans. 2360 mg/kg/day

---

Tested on: rodent lifetime carcinogenesis bioassay, tumor incidence TD50
ASSAY_OVERVIEW: carcinogenic potency in animals, long-term in vivo studies, CPDB compilation (AID 1745844)
EXPERIMENTAL_CONDITIONS: rat; strain Fischer 344/Mai fBR; females; inhaled; site: brain; lesion: several types; types named in the paper; dosed 101 weeks; study length 104 weeks
OUTCOME_MEASURE: TD50

Qu. May I ask what TD50 has been recorded for C1CO1 ?
Ans. 143 mg/kg/day

---

Test system: rodent lifetime carcinogenesis bioassay, tumor incidence TD50
ASSAY_OVERVIEW: carcinogenic potency in animals, long-term in vivo studies, CPDB compilation (AID 1745844)
EXPERIMENTAL_CONDITIONS: rat; strain Fischer 344; males; in feed; site: any site (literature study); lesion: several types; types named in the paper; dosed 100 weeks; study length 100 weeks
OUTCOME_MEASURE: TD50 (mg/kg/day)
One number for each entry, in mg/kg/day.

Qu. Can you look up the measured TD50 of O=NN(c1ccccc1)c1ccccc1 for me?
Ans. 136000

---

System: rodent lifetime carcinogenesis bioassay, tumor incidence TD50
ASSAY_OVERVIEW: carcinogenic potency in animals, long-term in vivo studies, CPDB compilation (AID 1745844)
EXPERIMENTAL_CONDITIONS: rat; strain Fischer 344; females; by gavage; site: liver; lesion: neoplastic nodule; dosed 106 weeks; study length 108 weeks
OUTCOME_MEASURE: TD50

Qu. Sample Cc1ccc(N=C=O)cc1N=C=O — what was its TD50?
Ans. 92.2 mg/kg/day

---

Tested on: rodent lifetime carcinogenesis bioassay, tumor incidence TD50
ASSAY_OVERVIEW: carcinogenic potency in animals, long-term in vivo studies, CPDB compilation (AID 1745844)
EXPERIMENTAL_CONDITIONS: rat; strain Fischer 344; males; by gavage; site: skin; lesion: squamous-cell carcinoma; dosed 35 weeks; study length 52 weeks
OUTCOME_MEASURE: TD50

Qu. Bench note: what TD50 did Cn1c(N)nc2c3cccnc3ccc21 show?
Ans. 0.579 mg/kg/day

---

Test system: rodent lifetime carcinogenesis bioassay, tumor incidence TD50
ASSAY_OVERVIEW: carcinogenic potency in animals, long-term in vivo studies, CPDB compilation (AID 1745844)
EXPERIMENTAL_CONDITIONS: mouse; strain Charles River CD1; males; in feed; site: liver; lesion: hepatocellular carcinoma; dosed 79 weeks; study length 79 weeks
OUTCOME_MEASURE: TD50 (mg/kg/day)
Give bare numbers, in mg/kg/day.

Qu. Param item = CCCCOCCOCCOCc1cc2c(cc1CCC)OCO2 ; retrieve measured TD50.
Ans. 3470

---

Tested on: rodent lifetime carcinogenesis bioassay, tumor incidence TD50
ASSAY_OVERVIEW: carcinogenic potency in animals, long-term in vivo studies, CPDB compilation (AID 1745844)
EXPERIMENTAL_CONDITIONS: rat; strain Wistar; males; in feed; site: urinary bladder; lesion: transitional-cell carcinoma; dosed 104 weeks; study length 104 weeks
OUTCOME_MEASURE: TD50 (mg/kg/day)
One number for each entry, in mg/kg/day.

Qu. State the recorded TD50 for this entry: Nc1cc(Cl)c(-c2cc(Cl)c(N)cc2Cl)cc1Cl
Ans. 561

---

Test system: rodent lifetime carcinogenesis bioassay, tumor incidence TD50
ASSAY_OVERVIEW: carcinogenic potency in animals, long-term in vivo studies, CPDB compilation (AID 1745844)
EXPERIMENTAL_CONDITIONS: mouse; strain Charles River CD1; males; in feed; site: liver; lesion: hepatocellular carcinoma; dosed 104 weeks; study length 104 weeks
Calls of active or inactive are those of the source. How the calls were made is not given here.
OUTCOME_MEASURE: TD50

Here are 2 compounds together with their reported answers.
SMILES: O=C(O)c1cc(Oc2ccc(C(F)(F)F)cc2Cl)ccc1[N+](=O)[O-]
OUTCOME_MEASURE: TD50
RESULT: 307 mg/kg/day
//
SMILES: CN[C@H]1CC[C@@H](c2ccc(Cl)c(Cl)c2)c2ccccc21
OUTCOME_MEASURE: TD50
RESULT: 425 mg/kg/day

Qu. Query: TD50; subject: O=C(O)CCCC/C=C(\c1ccccc1)c1cccnc1
Ans. 10200 mg/kg/day (inactive)

---

Tested on: rodent lifetime carcinogenesis bioassay, tumor incidence TD50
ASSAY_OVERVIEW: carcinogenic potency in animals, long-term in vivo studies, CPDB compilation (AID 1745844)
EXPERIMENTAL_CONDITIONS: mouse; strain NZO/BlGd; males; in drinking water; site: oropharynx; lesion: several types; types named in the paper; dosed 32 weeks; study length 60 weeks
OUTCOME_MEASURE: TD50

Qu. Fill blank: measured TD50 of the compound O=NN1CCCCCC1 is ____.
Ans. 1.41 mg/kg/day

---

Tested on: rodent lifetime carcinogenesis bioassay, tumor incidence TD50
ASSAY_OVERVIEW: carcinogenic potency in animals, long-term in vivo studies, CPDB compilation (AID 1745844)
EXPERIMENTAL_CONDITIONS: mouse; strain B6C3F1; males; i.p.; site: preputial gland; lesion: squamous-cell carcinoma; dosed 52 weeks; study length 83 weeks
OUTCOME_MEASURE: TD50

Qu. Which TD50 value belongs to S=P(N1CC1)(N1CC1)N1CC1 ?
Ans. 0.3 mg/kg/day

---

System: rodent lifetime carcinogenesis bioassay, tumor incidence TD50
ASSAY_OVERVIEW: carcinogenic potency in animals, long-term in vivo studies, CPDB compilation (AID 1745844)
EXPERIMENTAL_CONDITIONS: rat; strain Fischer 344; males; by gavage; site: kidney; lesion: tubular-cell adenocarcinoma; dosed 102 weeks; study length 104 weeks
OUTCOME_MEASURE: TD50

Qu. Entry ClC(Cl)Br has what TD50?
Ans. 213 mg/kg/day

---

System: rodent lifetime carcinogenesis bioassay, tumor incidence TD50
ASSAY_OVERVIEW: carcinogenic potency in animals, long-term in vivo studies, CPDB compilation (AID 1745844)
EXPERIMENTAL_CONDITIONS: mouse; strain B6C3F1; males; in feed; site: lung; lesion: alveolar/bronchiolar adenoma + alveolar/bronchiolar carcinoma; dosed 104 weeks; study length 104 weeks
OUTCOME_MEASURE: TD50 (mg/kg/day)
Answers are plain numbers, in mg/kg/day.

Qu. Suppose we examine the molecule O=C1OC(c2ccc(O)cc2)(c2ccc(O)cc2)c2ccccc21 ; what TD50 value has been reported?
Ans. 8060

---

Tested on: rodent lifetime carcinogenesis bioassay, tumor incidence TD50
ASSAY_OVERVIEW: carcinogenic potency in animals, long-term in vivo studies, CPDB compilation (AID 1745844)
EXPERIMENTAL_CONDITIONS: rat; strain Sprague-Dawley; females; inhaled; site: any site (literature study); lesion: several types; types named in the paper; dosed 104 weeks; study length 104 weeks
The source made the active and inactive calls. No rule for the calls is given here.
OUTCOME_MEASURE: TD50

SMILES: FC(F)Cl
TD50: 26000 mg/kg/day (inactive)

Field: next compound
Qu. # value lookup — system rodent lifetime carcinogenesis bioassay, tumor incidence TD50, readout TD50, item ClCCl
Ans. 32.1 mg/kg/day
